The binders listed here are annotated with their KIRA: ∼Max Efficacy vs WT.
# subjectOfTest: c-Ret on NB41A3-mRL3 cells (UniProt P35546 29-1115, limits assumed)
# Sequence (P35546 29-1115 limits assumed): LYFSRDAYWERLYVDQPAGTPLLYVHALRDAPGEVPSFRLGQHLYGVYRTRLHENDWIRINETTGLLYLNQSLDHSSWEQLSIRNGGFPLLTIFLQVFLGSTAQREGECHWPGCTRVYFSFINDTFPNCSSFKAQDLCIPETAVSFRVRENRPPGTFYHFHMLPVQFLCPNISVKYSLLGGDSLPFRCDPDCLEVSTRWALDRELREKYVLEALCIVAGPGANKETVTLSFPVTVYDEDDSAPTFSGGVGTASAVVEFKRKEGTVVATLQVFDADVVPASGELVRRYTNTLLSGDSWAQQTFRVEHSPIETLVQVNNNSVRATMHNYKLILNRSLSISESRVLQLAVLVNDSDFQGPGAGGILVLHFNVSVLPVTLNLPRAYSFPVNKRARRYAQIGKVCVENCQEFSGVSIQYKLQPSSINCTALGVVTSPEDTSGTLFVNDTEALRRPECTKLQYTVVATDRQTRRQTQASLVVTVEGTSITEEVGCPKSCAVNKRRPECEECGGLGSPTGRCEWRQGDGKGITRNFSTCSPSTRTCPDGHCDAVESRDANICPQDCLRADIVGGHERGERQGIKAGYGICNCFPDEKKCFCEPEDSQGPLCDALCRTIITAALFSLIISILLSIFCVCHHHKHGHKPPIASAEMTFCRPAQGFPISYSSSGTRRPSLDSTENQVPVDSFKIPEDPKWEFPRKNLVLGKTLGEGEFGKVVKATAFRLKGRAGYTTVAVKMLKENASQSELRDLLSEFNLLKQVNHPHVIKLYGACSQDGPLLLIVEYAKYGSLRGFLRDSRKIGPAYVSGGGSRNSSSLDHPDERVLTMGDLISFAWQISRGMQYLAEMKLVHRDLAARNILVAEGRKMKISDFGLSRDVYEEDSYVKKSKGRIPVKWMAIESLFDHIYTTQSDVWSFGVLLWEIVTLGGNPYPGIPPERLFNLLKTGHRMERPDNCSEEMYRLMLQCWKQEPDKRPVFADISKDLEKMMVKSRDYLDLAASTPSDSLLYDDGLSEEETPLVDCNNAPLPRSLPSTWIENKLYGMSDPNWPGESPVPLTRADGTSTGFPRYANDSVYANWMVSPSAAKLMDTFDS
# experimentNotes: cell-based or functional assay

INSERT INTO assay_data (binder, resulttype, measuredvalue) VALUES
  ('2 X 5 kDa PEG-NBN (ligand, 5 kDa PEG on amino acid 1 of each chain (PEGylated amino acids 1,1)) AGTRSSRARATDARGCRLRSQLVPVSALGLGHSSDELIRFRFCSGSCRRARSPHDLSLASLLGAGALRSPPGSRPISQPCCRPTRYEAVSFMDVNSTWRTVDHLSATACGCLG', 'KIRA: ∼Max Efficacy vs WT', '~105%'),
  ('1 X 20 kDa Branched PEG-NBN (ligand, one 20 kDa branched PEG per dimer, on amino acid 1 of one chain (PEGylated amino acids: 1)) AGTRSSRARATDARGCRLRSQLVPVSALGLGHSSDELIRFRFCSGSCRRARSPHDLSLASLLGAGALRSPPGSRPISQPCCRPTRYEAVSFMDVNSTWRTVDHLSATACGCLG', 'KIRA: ∼Max Efficacy vs WT', '~83%'),
  ('4 X 10 kDa PEG NBN106-N95K (ligand, 10 kDa PEG on the amino-terminal amino acid and on Lys95 of each chain (PEGylated amino acids 1,1,95,95)) ARATDARGCRLRSQLVPVSALGLGHSSDELIRFRFCSGSCRRARSPHDLSLASLLGAGALRSPPGSRPISQPCCRPTRYEAVSFMDVKSTWRTVDHLSATACGCLG', 'KIRA: ∼Max Efficacy vs WT', '> 80%');

Continue with the next binder.
Task item: Request the reported KIRA: ∼Max Efficacy vs WT associated with wild-type rat neublastin (NBN113), E. coli derived (ligand) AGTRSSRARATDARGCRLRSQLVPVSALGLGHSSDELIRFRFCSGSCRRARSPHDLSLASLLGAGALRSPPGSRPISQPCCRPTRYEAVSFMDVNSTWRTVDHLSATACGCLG
Reply: ~100%
